# ASSAYED_TARGET: Gal(b1-3)GlcNAc(b1-3)Gal(b1-4)Glc
# ASSAY_METHOD_TEXT: glycan array binding signal (z-score within array); higher = stronger binding
# TEST_CONTEXT: glycan notation: IUPAC condensed, linker removed
This is one part of a sample in which the strongest signals are shown more often than they occur.
MEASURED_ATTRIBUTE: glycan array binding signal (z-score)
No unit in the answer, please; the number alone is enough.

1) CGL3 (Coprinopsis cinerea) (protein) MGHHHHHHHHSGFHILRLESTVDLSEPLKDNGIIVFQSDKLDLEPSPNLGPTGIDNTNVNLINAKGDVLLHIGIRRRENAFVFNSIPYGESRGPEERIPLEGTFGDRRDPSITVFDHPDRYQIMIDYKTVYYYKKRLEGRCEKVSYKINEGQTPPFSDVLGVTVLYFANVMPRAN
2.51

Return glycan array binding signal (z-score) for the following binder: TbCVNHOb (Tuber borchii) (protein) MSFYASSEDVRTIEEGGRTWLVGRARRADGSWQDIKLDLDNIIGNRDGHLTWGEQNFTQSASDIRFNFEGGSNVPVLRAKLRNAAGGEQESDLNLGERLTNNNGDLVFN
5.86

Read off the recorded glycan array binding signal (z-score) for Sebin1 (Coprinopsis cinerea), A8PEE3 (protein) MTSPFYAHIHNVQDDNTWRFTLIFANRATADEWWRAISEAPANTSIAKSITRVTPQYYTHDVNIWNIWNFFADGNIKSISERFRGRLFIVLENDRGGRGITVIPPVPIVDHVSGNWFYIRSKTAPHLFWYYDERRSSIYASKEKRTRFKISIRNPSSQTPKNAIMINTDDVTIHIKENLYVGVDNNLGHIIPTRAYRTFKFGELESGAIAGFDVVENIEERCSSTFDGASLSISGPDSSSPGEPWELV
-0.671
